# ASSAY_SYSTEM: BTK (Homo sapiens)
# Sequence (Q06187 whole entry): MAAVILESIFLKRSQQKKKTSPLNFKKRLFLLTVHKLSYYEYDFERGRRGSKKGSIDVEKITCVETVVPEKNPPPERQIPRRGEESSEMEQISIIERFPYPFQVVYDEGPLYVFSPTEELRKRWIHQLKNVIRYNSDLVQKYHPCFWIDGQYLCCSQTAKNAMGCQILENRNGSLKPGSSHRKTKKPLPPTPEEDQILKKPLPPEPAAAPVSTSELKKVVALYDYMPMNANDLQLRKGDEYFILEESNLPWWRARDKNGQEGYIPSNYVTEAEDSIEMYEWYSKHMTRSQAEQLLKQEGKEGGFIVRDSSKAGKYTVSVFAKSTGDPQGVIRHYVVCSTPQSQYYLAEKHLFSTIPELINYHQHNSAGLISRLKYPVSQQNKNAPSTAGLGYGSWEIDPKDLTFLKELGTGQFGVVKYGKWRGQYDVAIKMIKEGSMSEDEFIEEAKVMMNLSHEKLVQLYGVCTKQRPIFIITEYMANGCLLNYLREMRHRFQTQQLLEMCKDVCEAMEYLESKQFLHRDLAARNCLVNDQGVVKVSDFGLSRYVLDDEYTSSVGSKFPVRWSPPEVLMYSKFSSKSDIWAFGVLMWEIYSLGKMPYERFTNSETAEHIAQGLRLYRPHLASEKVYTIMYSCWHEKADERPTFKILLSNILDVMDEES
# PROTOCOL_TEXT: Degradation of BTK protein in Namalwa cells (Western blot; DC50, Dmax)
# PROTOCOL_CONDITIONS: read-out: DC50 (BTK degradation); concentration giving 50% reduction of BTK expression level; cell line not given
ASSAY_METRIC: DC50

COMPOUND	VALUE_OBSERVED
NC1=NC=NC2C1C(c1ccc(Oc3ccccc3)cc1)=NN2C1CCN(C2CN(C(=O)N3CC(C4CN(c5ccc6c(c5)C(=O)N(C5CCC(=O)NC5=O)C6=O)C4)C3)C2)CC1 (stereo not drawn)	10 to 50 nM
NC(=O)c1c(-c2ccc(Oc3ccccc3)cc2)nn2c1NCC[C@H]2C1CCN(CC2CCN(C(=O)N3CCN(C4CCN(c5ccc6c(c5)C(=O)N(C5CCC(=O)NC5=O)C6=O)CC4)CC3)CC2)CC1 (stereo partly drawn)	10 to 50 nM
Nc1ncnc2c1c(-c1ccc(Oc3ccccc3)cc1)nn2C1CCN(CC2CN(CC3CCN(c4ccc5c(c4)C(=O)N(C4CCC(=O)NC4=O)C5=O)C3)C2)CC1 (stereo not drawn)	< 10 nM
Nc1ncnc2c1c(-c1ccc(Oc3ccccc3)cc1)nn2C1CCN(CC2CCN(CC3CN(c4ccc5c(c4)CN(C4CCC(=O)NC4=O)C5=O)C3)CC2)CC1 (stereo not drawn)	10 to 50 nM
NC1=NC=NC2C1C(c1ccc(Oc3ccccc3)cc1)=NN2[C@@H]1CCCN(C(=O)N2CCN(C3CN(c4ccc5c(c4)C(=O)N(C4CCC(=O)NC4=O)C5=O)C3)CC2)C1 (stereo partly drawn)	10 to 50 nM
Nc1ncnc2c1c(-c1ccc(Oc3ccccc3)cc1)nn2C1CCN(CCN2CCC(CN3CCC(c4ccc5c(c4)oc(=O)n5C4CCC(=O)NC4=O)CC3)C2)CC1 (stereo not drawn)	10 to 50 nM
